Where do the numbers come from? From patent US6759557B2.

# Tested on: melanoma cells B-16
# Protocol Details: Inhibiting effect on melanin synthesis in pigment cells (whiteness of cell residue observed by eye)
# Type: cell-based
# Parameters: key: −: same colour as the comparative solvent example (black); +: slight colour difference from the comparative solvent example (black grey); ++: clear colour difference from the comparative solvent example (white grey); +++: no colour in the cells (white)
# Study Conditions: 0.8 ppm in culture medium, 4 days, B-16 melanoma cells
Observed Property: whiteness of cells rated by eye (melanin synthesis inhibition)

Below are worked cases with known answers.
>>> print(df.to_string())
                                   compound  reported_value
0  O=C1CCCCCCCCC=CCCCCCCC1O (stereo not drawn) [2-hydroxy-9-cyclooctadecenone]               +
1  O=C1CCCCCCCCCCCCCCCCC1O (stereo not drawn) [2-hydroxycyclooctadecanone]               +
2  O=C1CCCCCCCCCCCCCCCCCCC1O (stereo not drawn) [2-hydroxycycloeicosanone]              ++
3  O=C1CCCCCCCCCCCCCCCCCCCCCCC1O (stereo not drawn) [2-hydroxycyclotetracosanone]              ++
4  O=C1CCCCCCCCCCCC=CCCCCCCCCCC1O (stereo not drawn) [2-hydroxy-12-cyclotetracosenone]              ++

Assign whiteness of cells rated by eye (melanin synthesis inhibition) to the following record: O=C1CCCCCCCCCC=CCCCCCCCC1O (stereo not drawn) [2-hydroxy-10-cycloeicosenone]
++
